Tested on: OVCAR-4
method_notes: NCI-60 anticancer screening (SRB)
Type: cell-based
test_parameters: Homo sapiens; OVCAR-4, ovarian cancer; one dose 10 μM; read-out: Growth Inhibition Percentage (GI %)
What inhibition at 10 µM was measured for each of the following?

Could you tell me which inhibition at 10 µM is on file for CCOC(=O)C1=C(N)N(c2ccc(Cl)cc2)C2=C(C(=O)CC(C)(C)C2)C1c1ccc([N+](=O)[O-])cc1 (racemic) ?
< 10%

Could you tell me which inhibition at 10 µM is on file for CCOC(=O)C1=C(N)N(c2ccc(C)cc2)C2=C(C(=O)CC(C)(C)C2)C1c1ccccc1OC (racemic) ?
< 10%

Could you tell me which inhibition at 10 µM is on file for CCOC(=O)C1=C(N)N(c2ccccc2)C2=C(C(=O)CC(C)(C)C2)C1c1ccc(Cl)cc1Cl (racemic) [10c] ?
75%

Could you tell me which inhibition at 10 µM is on file for CCOC(=O)C1=C(N)N(c2ccc(C)cc2)C2=C(C(=O)CC(C)(C)C2)C1c1ccccn1 (racemic) [12b] ?
< 10%

Could you tell me which inhibition at 10 µM is on file for CCOC(=O)C1=C(N)N(c2ccc(Cl)cc2)C2=C(C(=O)CC(C)(C)C2)C1c1ccc(N2CCOCC2)cc1 (racemic) ?
< 10%

Could you tell me which inhibition at 10 µM is on file for CCOC(=O)C1=C(N)N(c2ccccc2)C2=C(C(=O)CC(C)(C)C2)C1c1ccc(Cl)cc1 (racemic) ?
71%

Could you tell me which inhibition at 10 µM is on file for CCOC(=O)C1=C(N)N(c2ccc(C)cc2)C2=C(C(=O)CC(C)(C)C2)C1c1ccccc1Br (racemic) ?
17%

Could you tell me which inhibition at 10 µM is on file for CCOC(=O)C1=C(N)N(c2ccccc2)C2=C(C(=O)CC(C)(C)C2)C1c1ccccc1Br (racemic) ?
12%

Could you tell me which inhibition at 10 µM is on file for CCOC(=O)C1=C(N)N(c2ccc(C)cc2)C2=C(C(=O)CC(C)(C)C2)C1c1cccnc1 (racemic) [12e] ?
< 10%

Could you tell me which inhibition at 10 µM is on file for CCOC(=O)C1=C(N)N(c2ccc(C)cc2)C2=C(C(=O)CC(C)(C)C2)C1c1ccccc1Cl (racemic) ?
< 10%

Could you tell me which inhibition at 10 µM is on file for CCOC(=O)C1=C(N)N(c2ccc(Cl)cc2)C2=C(C(=O)CC(C)(C)C2)C1c1ccc(F)cc1 (racemic) ?
16%

Could you tell me which inhibition at 10 µM is on file for CCOC(=O)C1=C(N)N(c2ccccc2)C2=C(C(=O)CC(C)(C)C2)C1c1ccc(OC)cc1 (racemic) ?
< 10%

Could you tell me which inhibition at 10 µM is on file for CCOC(=O)C1=C(N)N(c2ccccc2)C2=C(C(=O)CC(C)(C)C2)C1c1ccc(N2CCOCC2)cc1 (racemic) ?
< 10%

Could you tell me which inhibition at 10 µM is on file for CCOC(=O)C1=C(N)N(c2ccc(C)cc2)C2=C(C(=O)CC(C)(C)C2)C1c1ccc([N+](=O)[O-])cc1 (racemic) ?
< 10%

Could you tell me which inhibition at 10 µM is on file for CCOC(=O)C1=C(N)N(c2ccc(Cl)cc2)C2=C(C(=O)CC(C)(C)C2)C1c1cccnc1 (racemic) [12f] ?
13%

Could you tell me which inhibition at 10 µM is on file for CCOC(=O)C1=C(N)N(c2ccccc2)C2=C(C(=O)CC(C)(C)C2)C1c1ccccc1Cl (racemic) ?
26%

Could you tell me which inhibition at 10 µM is on file for CCOC(=O)C1=C(N)N(c2ccc(Cl)cc2)C2=C(C(=O)CC(C)(C)C2)C1c1ccccc1OC (racemic) ?
58%

Could you tell me which inhibition at 10 µM is on file for CCOC(=O)C1=C(N)N(c2ccccc2)C2=C(C(=O)CC(C)(C)C2)C1c1ccccc1OC (racemic) ?
< 10%

Could you tell me which inhibition at 10 µM is on file for CCOC(=O)C1=C(N)N(c2ccccc2)C2=C(C(=O)CC(C)(C)C2)C1c1cccnc1 (racemic) [12d] ?
< 10%

Could you tell me which inhibition at 10 µM is on file for CCOC(=O)C1=C(N)N(c2ccc(Cl)cc2)C2=C(C(=O)CC(C)(C)C2)C1c1ccccc1Br (racemic) ?
25%

Could you tell me which inhibition at 10 µM is on file for CCOC(=O)C1=C(N)N(c2ccc(Cl)cc2)C2=C(C(=O)CC(C)(C)C2)C1c1cccc(Cl)c1Cl (racemic) [10b] ?
28%

Could you tell me which inhibition at 10 µM is on file for CCOC(=O)C1=C(N)N(c2ccccc2)C2=C(C(=O)CC(C)(C)C2)C1c1ccc([N+](=O)[O-])cc1 (racemic) ?
< 10%

Could you tell me which inhibition at 10 µM is on file for CCOC(=O)C1=C(N)N(c2ccccc2)C2=C(C(=O)CC(C)(C)C2)C1c1ccccn1 (racemic) [12a] ?
< 10%

Could you tell me which inhibition at 10 µM is on file for CCOC(=O)C1=C(N)N(c2ccccc2)C2=C(C(=O)CC(C)(C)C2)C1c1ccc(F)cc1 (racemic) ?
< 10%

Could you tell me which inhibition at 10 µM is on file for CCOC(=O)C1=C(N)N(c2ccc(C)cc2)C2=C(C(=O)CC(C)(C)C2)C1c1ccc(Cl)cc1 (racemic) ?
< 10%
